Give measured kon for each item. Keep answers brief.
Biological target: T1, mouse programmed cell death protein 1 Fc fusion protein (mPD-1-Fc), mPD-1 C60S (aa 25-167) (Mus musculus, UniProt Q02242, stabilised)
T1 construct: not cleaved; source: Expi293F, purified (Protein A, SEC; dimeric fraction); not shown: Fc (human), C-terminal, kept
Experiment: SPR; Carterra LSA; Fab from the ammonium sulfate precipitate of the culture supernatant immobilised on a NiHC200M chip; hPD-1 (1-1024 nM) or mPD-1-Fc (4-1024 nM) as analyte, fourfold dilution series, no regeneration; HBS-EP pH 7.4, 25 °C; medians over the spots of a construct, KD = koff/kon
Conditions: one partner purified
Answers are plain numbers, in M⁻¹ s⁻¹.

Below are worked cases with known answers.
binder="toripalimab Fab L.L101E (Fab, V domains shown, as the heavy chain of Sm3; light chain of Sm3 with this change; numbers count from the chain's first residue; source: Brevibacillus, culture supernatant (ammonium sulfate precipitate); not shown: 6xHis, C-terminal, kept; 6xHN, C-terminal, kept) VH: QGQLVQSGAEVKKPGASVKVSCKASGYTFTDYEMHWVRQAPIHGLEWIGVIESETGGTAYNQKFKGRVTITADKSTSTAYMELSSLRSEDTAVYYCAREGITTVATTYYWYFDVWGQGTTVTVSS VL: DVVMTQSPLSLPVTLGQPASISCRSSQSIVHSNGNTYLEWYLQKPGQSPQLLIYKVSNRFSGVPDRFSGSGSGTDFTLKISRVEAEDVGVYYCFQGSHVPETFGQGTKLEIK" uom="M⁻¹ s⁻¹" reading=41000
binder="toripalimab Fab L.S26Y (Fab, V domains shown, as the heavy chain of Sm3; light chain of Sm3 with this change; numbers count from the chain's first residue; source: Brevibacillus, culture supernatant (ammonium sulfate precipitate); not shown: 6xHis, C-terminal, kept; 6xHN, C-terminal, kept) VH: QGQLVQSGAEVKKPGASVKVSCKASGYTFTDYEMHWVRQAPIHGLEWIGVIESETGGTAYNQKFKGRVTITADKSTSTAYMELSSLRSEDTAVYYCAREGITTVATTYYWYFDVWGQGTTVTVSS VL: DVVMTQSPLSLPVTLGQPASISCRSYQSIVHSNGNTYLEWYLQKPGQSPQLLIYKVSNRFSGVPDRFSGSGSGTDFTLKISRVEAEDVGVYYCFQGSHVPLTFGQGTKLEIK" uom="M⁻¹ s⁻¹" reading=44500

Now for the binder whose kon we want.
Item toripalimab Fab H.V114Y (Fab, V domains shown, heavy chain of Sm3 with this change; numbers count from the chain's first residue; as the light chain of Sm3; source: Brevibacillus, culture supernatant (ammonium sulfate precipitate); not shown: 6xHis, C-terminal, kept; 6xHN, C-terminal, kept) VH: QGQLVQSGAEVKKPGASVKVSCKASGYTFTDYEMHWVRQAPIHGLEWIGVIESETGGTAYNQKFKGRVTITADKSTSTAYMELSSLRSEDTAVYYCAREGITTVATTYYWYFDYWGQGTTVTVSS VL: DVVMTQSPLSLPVTLGQPASISCRSSQSIVHSNGNTYLEWYLQKPGQSPQLLIYKVSNRFSGVPDRFSGSGSGTDFTLKISRVEAEDVGVYYCFQGSHVPLTFGQGTKLEIK has what recorded kon?
37800
